Reference source: the supplement of paper PMC4862054

Tested on: HDQ-P1
Assay: normalised viability (% of control), CellTiter-Blue; higher = more viable cells (about 100 = DMSO control)
Conditions: incubation time: 72 h
Measurement type: normalised viability (%)
Please respond with the number in % and leave the unit unwritten.

[[record]]
compound = "COc1cc([C@@H]2c3cc4c(cc3[C@@H](O[C@@H]3O[C@@H]5CO[C@@H](C)O[C@H]5[C@H](O)[C@H]3O)[C@H]3COC(=O)[C@H]23)OCO4)cc(OC)c1O [Etoposide] (3000 nM)"
unit_abbreviation = "%"
value_observed = 78.7

[[record]]
compound = "C#Cc1cccc(Nc2ncnc3cc(OCCOC)c(OCCOC)cc23)c1 [Erlotinib] (3000 nM)"
unit_abbreviation = "%"
value_observed = 75.4

[[record]]
compound = "N.N.[Cl][Pt][Cl] [Cisplatin] (3000 nM)"
unit_abbreviation = "%"
value_observed = 104


Q. Return normalised viability (reported value) for this compound: Oc1nc(-c2ccc(C(F)(F)F)cc2)nc2c1CSCC2 [XAV-939] (3000 nM)
A. 76.8

Q. Return normalised viability (reported value) for this compound: CNCc1ccc(-c2[nH]c3cc(F)cc4c3c2CCNC4=O)cc1 [Rucaparib] (3000 nM)
A. 82.9
